Source of measurements: the supplement of paper PMC10065799

biological target: Jak2 (UniProt O60674); assay: phosphorylation enrichment, bacterial display (enrichment ratio); higher = better substrate or ligand; peptides without Tyr show the background;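 further: 11-residue human phosphosite peptides and single-mutation variants displayed on the E. coli surface, counted by deep sequencing, each peptide's frequency after selection divided by its frequency in the unselected input library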;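 further: frequency after pTyr selection over input frequency; kinase dosed for 20-30% of maximal phosphorylation in three min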
Sequence (O60674 whole entry, looked up): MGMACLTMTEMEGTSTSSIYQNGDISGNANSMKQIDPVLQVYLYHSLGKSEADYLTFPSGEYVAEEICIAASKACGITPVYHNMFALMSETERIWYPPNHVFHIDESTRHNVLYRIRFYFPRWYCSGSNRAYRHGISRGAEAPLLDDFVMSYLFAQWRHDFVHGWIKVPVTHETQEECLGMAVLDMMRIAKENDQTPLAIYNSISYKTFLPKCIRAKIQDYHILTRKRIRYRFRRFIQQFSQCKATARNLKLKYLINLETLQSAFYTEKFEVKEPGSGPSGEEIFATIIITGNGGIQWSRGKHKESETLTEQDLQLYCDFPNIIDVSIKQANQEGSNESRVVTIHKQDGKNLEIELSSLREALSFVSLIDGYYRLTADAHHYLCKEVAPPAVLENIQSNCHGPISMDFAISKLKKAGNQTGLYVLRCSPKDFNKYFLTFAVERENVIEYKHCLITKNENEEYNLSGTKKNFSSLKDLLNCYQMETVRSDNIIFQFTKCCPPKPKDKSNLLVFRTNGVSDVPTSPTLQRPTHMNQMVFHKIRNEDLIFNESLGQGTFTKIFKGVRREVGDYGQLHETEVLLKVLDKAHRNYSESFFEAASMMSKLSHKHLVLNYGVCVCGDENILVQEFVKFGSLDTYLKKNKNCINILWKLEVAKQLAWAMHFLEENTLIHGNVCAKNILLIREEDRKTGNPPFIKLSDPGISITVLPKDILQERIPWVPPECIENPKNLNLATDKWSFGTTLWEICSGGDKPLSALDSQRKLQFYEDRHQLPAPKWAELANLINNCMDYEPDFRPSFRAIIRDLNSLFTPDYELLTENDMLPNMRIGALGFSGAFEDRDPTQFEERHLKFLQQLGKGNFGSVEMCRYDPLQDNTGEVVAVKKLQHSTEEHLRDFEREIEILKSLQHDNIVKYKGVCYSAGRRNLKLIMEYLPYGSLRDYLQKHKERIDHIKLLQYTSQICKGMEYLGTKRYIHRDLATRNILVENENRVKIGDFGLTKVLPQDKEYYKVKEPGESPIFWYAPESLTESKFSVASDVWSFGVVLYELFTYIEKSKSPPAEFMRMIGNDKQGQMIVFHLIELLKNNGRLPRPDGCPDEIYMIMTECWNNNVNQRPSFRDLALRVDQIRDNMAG
Mark NO for phosphorylation enrichment values under 0.7, and YES for everything at or above.

# Monomer Sequence, Class Name
data = [
    ("ERDYTYDELLN [EIF2S2_Y176_E177D]", "YES"),
    ("GPQGVYSNKLV [PTPN14_Y506]", "NO"),
    ("LGKGSYAKVRS [TSSK2_Y23_K27R]", "YES"),
    ("FLAVGYHKTHI [IDS_Y225_P228T]", "YES"),
    ("KHMADYPDYKY [SOX11_Y113]", "NO"),
    ("LLVVVYKYRCY [PSEN1_Y154_L153V]", "YES"),
    ("CTNPRYLAAGS [RABL3_Y185]", "YES"),
    ("TTKGSYSLFVR [HCK_Y180_S183Y_YF]", "YES"),
    ("LSIDRYHAIVF [NPSR1_Y147_YF]", "YES"),
    ("RLVTRYIYNRE [HLA-DQB1_Y62_Y58L]", "NO"),
    ("QNTGVYYDLYG [PTPN11_Y62_D61V]", "YES"),
    ("NVADHYGVYKP [ATP6V0D2_Y271]", "NO"),
    ("TSESSYYKSLN [NGEF_Y288_A286S]", "YES"),
    ("NLNGKYFKPRA [ANGPTL3_Y417_N418Y_YF]", "NO"),
    ("NTYEKYWPFYQ [GATM_Y103]", "YES"),
    ("TNYSLYLRSLE [MTM1_Y71_R69S]", "YES"),
    ("KACNPYKPPGP", "YES"),
    ("TSSSSYFDEPV [ARFGAP3_Y356]", "YES"),
    ("FQQLFYLLQTN [IQGAP2_Y890_YF]", "YES"),
    ("GVVVPYEPPEV [TP53_Y220_S215G]", "YES"),
    ("VDYQPYRKHKY [TEX37_Y28]", "NO"),
    ("VHNLDYYKMTT [FGFR3_Y647_K650M]", "YES"),
    ("GKSDPYHATSG [GJA1_Y247]", "NO"),
    ("NGRQCYSCKGN [PLAUR_Y217]", "NO"),
    ("REDIFYTSKLW [AKR1C2_Y81]", "YES"),
    ("ADAGMYGVLPW [PLP1_Y207_R205G]", "NO"),
    ("TSSGGYRRTPS [ABI1_Y333]", "NO"),
    ("LLNPSYNLPLD [TOM1L1_Y109_R108S]", "YES"),
    ("EMTAEYACTRK [ACAD9_Y325]", "NO"),
    ("FSGKAYADEEQ [CRIM1_Y826_R831Q]", "YES"),
    ("KVKGEYDMTVP [AHNAK_Y964]", "NO"),
    ("SREALYNETDP [CACNA1A_Y794_M797T]", "YES"),
    ("CNPLRYPTIMI [OR6K6_Y160]", "YES"),
    ("RVVVPYEPPEV [TP53_Y220_S215R]", "YES"),
    ("RSHRSYSCQVM [IGLL1_Y192_R189H]", "NO"),
    ("IFCIQYNICAF [MYH4_Y820_R823C]", "YES"),
    ("EKEKKYMLPLD [DNM2_Y563]", "YES"),
    ("CTTIHYNYMCD [TP53_Y234_N239D]", "NO"),
    ("DTLASYLDKVR [KRT12_Y139_R135T]", "NO"),
    ("SIKDKYLTALY [KCNH2_Y611_V612L]", "NO"),
    ("LRYDVYGGENE [STOX1_Y610_E608D]", "YES"),
    ("VTQEQYELFCE [CBL_Y368_YF]", "YES"),
    ("NNIDFYKNTTN [FGFR2_Y657_K659N_YF]", "NO"),
    ("CASQLYPRHKH [DCTN4_Y263]", "YES"),
    ("APEVIYATPGA [ABLtide_2014]", "YES"),
    ("IPGMEYLVSII [TNC_Y1775_V1773M]", "YES"),
    ("IHYPPYTDWNQ [ALDH3B2_Y365]", "YES"),
    ("LENSTYQYIRV [CRB1_Y760]", "YES"),
    ("TLSGIYQFIIA [FOXL2_Y81_YF]", "YES"),
    ("TEQDPYNNIVR [MMUT_Y364]", "YES"),
    ("ADFFDYGRGLS [KHDRBS3_Y304_H306R_YF]", "YES"),
    ("SSYSRYIMMPN [LEF1_Y114_G113R]", "YES"),
    ("LSDGPYSSPFE [EPOR_Y485_N487S_YF]", "YES"),
    ("PMQLPHDSTWE [PDGFRB_Y589_Y589H]", "YES"),
    ("KFLVGYEMLAQ [GALT_Y339_M336L]", "YES"),
    ("QFLMKYVWSAS [ABCD1_Y337]", "YES"),
]

---

molecular target: EPHB2 (UniProt P29323); experiment: phosphorylation enrichment, bacterial display (enrichment ratio); higher = better substrate or ligand; peptides without Tyr show the background
Sequence (P29323 whole entry, looked up): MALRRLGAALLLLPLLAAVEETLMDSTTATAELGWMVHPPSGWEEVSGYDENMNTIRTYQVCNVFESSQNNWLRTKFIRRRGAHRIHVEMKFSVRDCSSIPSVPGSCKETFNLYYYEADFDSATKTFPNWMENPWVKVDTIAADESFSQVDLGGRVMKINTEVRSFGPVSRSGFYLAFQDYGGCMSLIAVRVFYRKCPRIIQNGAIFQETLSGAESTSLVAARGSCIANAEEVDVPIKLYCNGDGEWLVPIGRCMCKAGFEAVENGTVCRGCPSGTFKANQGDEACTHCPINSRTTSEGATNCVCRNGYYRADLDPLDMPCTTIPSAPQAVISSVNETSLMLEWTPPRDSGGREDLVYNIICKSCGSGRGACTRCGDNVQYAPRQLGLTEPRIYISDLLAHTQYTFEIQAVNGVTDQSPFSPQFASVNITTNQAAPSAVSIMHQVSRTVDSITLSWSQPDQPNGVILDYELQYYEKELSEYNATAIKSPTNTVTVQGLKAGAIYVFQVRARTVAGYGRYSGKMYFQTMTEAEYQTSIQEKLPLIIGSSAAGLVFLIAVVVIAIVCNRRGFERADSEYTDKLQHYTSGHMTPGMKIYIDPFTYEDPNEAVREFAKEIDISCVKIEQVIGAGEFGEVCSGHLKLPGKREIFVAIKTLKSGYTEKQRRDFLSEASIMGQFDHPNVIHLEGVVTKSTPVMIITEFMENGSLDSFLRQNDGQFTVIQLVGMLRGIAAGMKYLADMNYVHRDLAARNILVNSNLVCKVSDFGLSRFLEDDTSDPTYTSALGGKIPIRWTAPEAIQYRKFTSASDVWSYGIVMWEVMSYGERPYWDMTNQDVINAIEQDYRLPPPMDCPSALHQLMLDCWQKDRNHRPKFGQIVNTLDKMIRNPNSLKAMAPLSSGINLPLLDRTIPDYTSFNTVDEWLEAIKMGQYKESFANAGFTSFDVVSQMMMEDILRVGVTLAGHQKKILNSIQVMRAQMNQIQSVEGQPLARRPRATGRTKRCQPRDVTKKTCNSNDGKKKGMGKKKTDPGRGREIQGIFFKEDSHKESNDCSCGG

# Monomer Sequence, Experimental System, phosphorylation enrichment
data = [
    ("IALSKYGRVKW [FGF6_Y186_R191W]", "EPHB2 (UniProt P29323)", 0.329),
    ("VNTTLYEKFTF [TEK_Y1108_YF]", "EPHB2 (UniProt P29323)", 0.748),
    ("SVTCTYSSALN [TP53_Y126_P128S]", "EPHB2 (UniProt P29323)", 0.576),
    ("EPYKVYRIVPE [IRF8_Y110]", "EPHB2 (UniProt P29323)", 0.54),
    ("FTFDPYSEEEP [IL2RB_Y387_D391E_YF]", "EPHB2 (UniProt P29323)", 0.576),
    ("KTGNIYRTEFG [MRPL3_Y265_M261T_YF]", "EPHB2 (UniProt P29323)", 0.377),
    ("SIKDKYLTALY [KCNH2_Y611_V612L]", "EPHB2 (UniProt P29323)", 0.452),
    ("INMKKYCKKDF [NTN1_Y490_YF]", "EPHB2 (UniProt P29323)", 0.522),
    ("PRLLRYLQLDF [ASB10_Y457]", "EPHB2 (UniProt P29323)", 0.73),
    ("ADARMYGDLPW [PLP1_Y207_V209D]", "EPHB2 (UniProt P29323)", 0.506),
    ("SHTPSYCDESL [RITA1_Y109]", "EPHB2 (UniProt P29323)", 0.459),
    ("EQLQSYQAEII [KRT33A_Y268]", "EPHB2 (UniProt P29323)", 0.571),
    ("TLNVRHESVQA [CEACAM7_Y236_Y236H]", "EPHB2 (UniProt P29323)", 0.44),
    ("QRKRAYVEIEF [MAK16_Y282_YF]", "EPHB2 (UniProt P29323)", 0.594),
    ("LCHELYNTIRD [PBRM1_Y54_V49L]", "EPHB2 (UniProt P29323)", 0.785),
    ("GREFIYVDPMQ [PDGFRA_Y574_H570R_YF]", "EPHB2 (UniProt P29323)", 5.79),
    ("NDKLCYEVSSP [CDH13_Y66_R65C]", "EPHB2 (UniProt P29323)", 0.724),
    ("EERNPYYSSAR [MCCC2_Y520_G517R]", "EPHB2 (UniProt P29323)", 0.5),
    ("VFAADYFKLLG [ROR2_Y645_YF]", "EPHB2 (UniProt P29323)", 0.403),
    ("EFISESCGEII [EZH2_Y641_Y641S]", "EPHB2 (UniProt P29323)", 0.752),
    ("DLHGIYQKLVI", "EPHB2 (UniProt P29323)", 3.01),
    ("RNPLRYTSILT [OR51B6_Y130_S126N]", "EPHB2 (UniProt P29323)", 0.482),
    ("VAVVQYSGTGQ [COL6A1_Y878]", "EPHB2 (UniProt P29323)", 0.463),
    ("GIMEEYQLPFF [BMPR1A_Y453_V450M_YF]", "EPHB2 (UniProt P29323)", 0.914),
    ("DLFRLYVCVKE [ARID1B_Y1091]", "EPHB2 (UniProt P29323)", 0.67),
    ("FVTSMYNEILM [TRPV1_Y310]", "EPHB2 (UniProt P29323)", 0.596),
    ("YAFQLYDLDPD [CHP2_Y123_R127P]", "EPHB2 (UniProt P29323)", 0.998),
    ("LGNIVYSSLCG [BCOR_Y90_P85L]", "EPHB2 (UniProt P29323)", 1.39),
    ("GDEEDYEEIPG [EGFR_opt_E_2015]", "EPHB2 (UniProt P29323)", 0.59),
]
